- System: SN12C
- protocol: NCI tumour cell line growth inhibition, 48 h
The source made the active and inactive calls. Rule as the data show it: active = GI50 up to about 1.1 µM and inactive = higher. Where a SMILES comes first, the peptide text is derived from it. Square brackets hold non-standard residues; d marks the D form. Peptide text beside a SMILES is read from it. The star is where a group is joined. ξ: configuration not given here. ξ2Thi = NC(Cc1cccs1)C(=O)O; ξR = N=C(N)NCCCC(N)C(=O)O; Cbz = O=C(OCc1ccccc1)*; Boc = CC(C)(C)OC(=O)*; ξI = CCC(C)C(N)C(=O)O; ξL = CC(C)CC(N)C(=O)O; ξK = NCCCCC(N)C(=O)O; ξT = CC(O)C(N)C(=O)O; ξA = CC(N)C(=O)O; tBu = CC(C)(C)*
Respond with a class label; see Y = active, N = inactive

Query: recorded result category for COc1ccc(-n2sc3ncc([N+](=O)[O-])cc3c2=O)cc1 in this test N

Assay result, entry O=[N+]([O-])/C(Cl)=C(\Nc1ccccc1)C(Cl)=C(Cl)Cl — outcome? N

Hi team, can someone confirm the assay call for Cn1c(N=[N+]=[N-])cc(=O)n(C)c1=O ? N

Query: recorded result category for COP(=N[Si](C)(C)C)(OC)OC in this test N

// param item: CC(=O)OC(COc1ccc2c(c1)[n+]([O-])nc(N)[n+]2[O-])CN1CCCCC1 (centres undefined) ; yields the recorded call N

Recorded test outcome, item CCOC(=O)C1=CNC(C(=O)OCC)C1c1cccn1-c1ccc(Cl)cc1[N+](=O)[O-] (centres undefined) N

Please state the recorded outcome for this molecule: CCCCc1ccc(Nc2nc3c(ncn3C3CC(O)C(CN=[N+]=[N-])O3)c(=O)[nH]2)cc1 (centres undefined) N

Each molecule tested received a call. Report the one for CC(C)=NN/C(=N\c1ccc(Cl)cc1)NS(=O)(=O)c1cc(Cl)c(Oc2ccc([N+](=O)[O-])cc2Cl)c(Cl)c1 . N

Recorded test call requested for CO/C(=N\N=C\c1ccc(C(F)(F)F)cc1)c1ccncc1 N

# outcome recorded in this test, key = O=[As](O)(O)c1ccc2nc3cc([As](=O)(O)O)ccc3nc2c1 N

Just curious, what result did Cc1ccc(S(=O)(=O)N/N=C2/CCCOC2)cc1 get here? N

Hi, sorry to bother you, what did the test record for CC(C)=CC1CC(=O)C1(C)Sc1ccccc1 (centres undefined) ? N

Which outcome was assigned to O=C(NC(=S)Nc1ccc([N+](=O)[O-])cc1)c1ccc2c(c1)Sc1ccccc1O2 in this test? N

Name the outcome recorded for Cn1c(=O)sc2cc(C(=S)N3CCN(c4ccccc4)CC3)ccc21 in the assay. N

Look up the recorded call for NC(=O)NC(=O)c1cccc(NC(=O)CBr)c1 in this test. Y

For this molecule, state the assay outcome: C[C@H](C1CC(C)(O)C(C)(O)C(O)O1)[C@H]1CC[C@H]2[C@@H]3[C@@H]4O[C@@H]4[C@@]4(O)CC=CC(=O)[C@]4(C)[C@H]3CC[C@]12C (some centres undefined) N

Hi team, can someone confirm the assay call for O=S(=O)(O)c1ccc(/N=N\c2ccc(/N=N\c3ccc(/C=C/c4ccc(/N=[N+](/[O-])c5ccc(/C=C/c6ccc(/N=N/c7ccc(/N=N\c8ccc(S(=O)(=O)O)cc8)cc7)cc6S(=O)(=O)O)c(S(=O)(=O)O)c5)cc4S(=O)(=O)O)c(S(=O)(=O)O)c3)cc2)cc1 ? N

Hi, do you know how CCOC(=O)c1nc2cc(C(F)(F)F)ccc2nc1Nc1ccc(OC)c(OC)c1 came out in this test? N

Any idea what this test logged for O=[N+]([O-])c1ccc(/N=N/c2c(O)ccc3ccccc23)cc1 ? N

For this molecule, state the assay outcome: CN1C(=O)CN(NC(=O)C2=C(O)c3ccc(Br)cc3S(=O)(=O)N2)C1=S N

// param item: COc1ccc(C[C@H]2NC[C@H](OC(C)=O)[C@H]2OC(C)=O)cc1 ; yields the recorded call Y

Record lookup: outcome of this test for CCC(C)C(NC(=O)C(Cc1cccs1)NC(=O)C(CC(C)C)NC(=O)C(CC(C)C)NC(=O)C(CCCCN)NC(=O)C(CCCN=C(N)N)NC(=O)[C@H](Cc1ccc(O)cc1)NC(=O)C(NC(=O)C(C)NC(=O)C(N)CC(C)C)C(C)O)C(=O)NC(CC(C)C)C(N)=O (some centres undefined) (H-[ξL][ξA][ξT]Y[ξR][ξK][ξL][ξL][ξ2Thi][ξI][ξL]-NH2) ? N

I'd appreciate the recorded outcome for O=C(CCN1CCCCC1CCO)Nc1ccc2c(c1)C(=O)c1ccc(NC(=O)CCN3CCCCC3CCO)cc1C2=O (centres undefined) from this test. N

What is the recorded call for this molecule in the test? Cc1ccc(NC(=O)c2cc3cc(/N=N/c4ccccc4C(=O)O)ccc3oc2=O)cc1 N

# lookup: test call for CN1C2=Nc3n(C)c4ccccc4[n+]3CN2c2ccccc21 N

Please indicate how the test categorized COC1=C[C@]2(CCC(=O)O2)[C@@H]2Cc3ccccc3[C@H](O)[C@@H]2C1=O . N

# lookup: test call for CCOC(=O)c1ccc(Nc2nc3cc(C(F)(F)F)ccc3nc2-c2ccccc2)cc1 N

Name the outcome recorded for CC(OC(C)(C)C)C(NC(=O)C(CCCCNC(=O)OC(C)(C)C)NC(=O)C(Cc1c[nH]c2ccccc12)NC(=O)C(Cc1ccccc1)NC(=O)OCc1ccccc1)C(=O)NC(Cc1ccccc1)C(=O)O (centres undefined) (Cbz-FWK(Boc)T(tBu)F-OH; configuration not given here) in the assay. N

What did the test return for COC(=O)C1(Cc2ccc3c(c2)CCC3)Cc2ccc3c(c2C1=O)CCC3 (centres undefined) ? N

Record lookup: outcome of this test for CCOC(=O)c1nc2ccccc2nc1Nc1ccc(C(=O)OC)s1 ? N

Hi, do you know how COc1cc(Br)c(/C=N\c2cccc3ccc(OS(=O)(=O)c4ccc([N+](=O)[O-])cc4)cc23)cc1OC came out in this test? N

Fill in: this test's call for COc1cc(O)c2c(c1)C(=O)c1cc3c(c(O)c1C2=O)C(OC1OC(C)C(O)C(O)C1OC)C(OC)C(C)(O)C3=O (centres undefined) is ___ N

How did this test come out for CS(=O)(=O)N1CC(CI)c2ccc(O)cc21 (centres undefined) ? N

Status in this test for Cc1cc(C)nc(NS(=O)(=O)c2ccc(Nc3c4ccccc4nc4c(C(=O)NCCCN(CCO)CCO)cccc34)cc2)n1 ? N

###

- Tested on: SF-295
- protocol: NCI tumour cell line growth inhibition, 48 h
Structures can show the parent of a compound that is named as a salt. Activity calls are given as the source filed them. Cut-off read from the data, not from the text of the source: active = GI50 up to about 1.1 µM and inactive = higher.
# valid calls are yes (active), no (inactive); nothing else

Entry NC(N)=NCc1ccc2c(c1)OCO2 : call = ? no

Dear colleague, could you share the recorded outcome for C#CC(O)/C=C/C(O)CCCC(O)CC#CC(O)C#CCCCCC(O)/C=C/CCCCCC(=O)CCCCCCCCCCCCCC(O)C(O)C#CC(=O)O (stereo unspecified) when you have a moment? no

Called result for CC1OC(OC2C(O[C@H]3CC[C@@]4(C)C(=CC[C@H]5[C@@H]6C[C@@H]7O[C@]8(CC[C@@H](C)CO8)[C@@H](C)[C@@H]7[C@@]6(C)CC[C@@H]54)C3)OC(CO)C(OC3OC(CO)C(O)C3O)C2O)C(O)C(O)C1O (stereo partly specified) yes

Returns: the outcome recorded for CCOC(=O)CCC(NC(=O)c1ccc(NCc2ccc3nc(-c4ccccc4)c(Cl)nc3c2)c2ccccc12)C(=O)OCC (stereo unspecified) in this assay. no

For this molecule, state the assay outcome: N#CSc1ccc(S(N)(=O)=O)cc1 no

Outcome? O=C(CC1C=Cc2ccccc2N1C(=O)c1ccccc1)c1ccccc1 (stereo unspecified) no

Tell me the assay call for Cc1cc(C)nc(NS(=O)(=O)c2ccc(Nc3c4ccccc4nc4c(C(=O)NCCCN(CCO)CCO)cccc34)cc2)n1 please. no

I'd appreciate the recorded outcome for O/N=C1/CCCCC1NO (stereo unspecified) from this test. no

Outcome? c1ccc(CNC2CC(NCc3ccccn3)CC(NCc3ccccn3)C2)nc1 (stereo unspecified) no

What was the test verdict on NC(=O)NC(=O)c1cccc(NC(=O)CBr)c1 ? yes

Kindly provide the recorded test outcome for the following molecule: O=C(Nc1c(O)[nH]c(=S)[nH]c1=O)c1ccco1 no

Hello, I am checking results. What call was entered for CCOC(=O)c1nc2cc(C(F)(F)F)ccc2nc1Nc1ccc(C(=O)OC)s1 ? no

Hey, what did the test say about Nc1ccc2c(=S)c3ccccc3[nH]c2c1 ? no

Recorded call for C[C@]12C=CC(=O)C=C1[C@@H](F)C[C@H]1[C@@H]3CC[C@](O)(C(=O)CO)[C@@]3(C)C[C@H](O)[C@@]12F ? no

Give the logged outcome of this assay for the following molecule: CCOC1NC(=O)c2ccccc21 (stereo unspecified) no

What outcome does the record of this test show for Nc1cc(N2CCCC2)nc(=O)n1Cc1ccccc1 ? no

Field: outcome | Entry: COc1cc(/C=C2\CCC(CN(C)C)C2=O)ccc1OC(=O)c1ccccc1 (stereo unspecified) no

I'd appreciate the recorded outcome for Nc1cccc2nnccc12 from this test. no

Returns: the outcome recorded for NNC(N)Nc1ccccc1 (stereo unspecified) in this assay. no

Please let me know the test result on file for Cc1c(Cl)nc(Nc2nc3ccccc3[nH]2)nc1Cl . no

Dear all, I need the recorded test outcome for CCN(CC)CCNc1ccc(CO)c2sc3ccccc3c(=O)c12 [HYCANTHONE MESYLATE] , thank you. no

Record request — test call for CC1=NN(c2nc(N)nc(/C(C#N)=C\c3ccc([N+](=O)[O-])s3)n2)C(C)(C)C1 no

For O=C(NC1=NC2C=CC([N+](=O)[O-])=CC2S1)C(=O)Nn1c(S)nc2ccccc2c1=O (stereo unspecified) , what call appears in the results of this test? no

Hi, do you know how COC1=CC(=O)N(C(=O)C2CSC(C(CO)NC(=O)c3csc(/C=N/O)n3)=N2)C1 (stereo unspecified) came out in this test? no

Identify the outcome logged in this assay for the molecule shown: ClC(Cl)(Cl)C1CCOC1n1nc2ccccc2n1 (stereo unspecified) no

Please share the test call associated with COC(=O)C1C(O)C(C)C(O)OC1C(C)C(O)C(C)/C=C\C=C(/C)C(=O)Nc1c(C)c(OC(C)=O)c2c(c1O)C(=O)C(C)=C1OCOC(/C(C)=C/C(C)=O)=C12 (stereo unspecified) . no

# outcome recorded in this test, key = C=C1CC(O)C2C(=C)C(=O)OC2C2C(C)C(=O)CC12 (stereo unspecified) no

Please let me know the test result on file for CC(C)(C)c1ccccc1NS(=O)(=O)c1ccccc1 . no

Dear all, I need the recorded test outcome for Cc1csc2nc(-c3cc([N+](=O)[O-])c(Cl)cc3Cl)c(/C=N/N=C(N)N)n12 , thank you. no

Please let me know the test result on file for COc1ccc(C2S/C(=C\c3cccc(O)c3)C(=O)N2NC(=O)Cc2ccccc2)cc1 (stereo unspecified) . no

Hi, do you know how Cc1cn2c(/C=C3/C(=O)Nc4ccccc43)c(-c3ccccc3)nc2s1 came out in this test? no

Assay outcome for FC(F)(F)c1n[nH]c(SCc2ccc(Cl)cc2)n1 : what was it? no

# fetch the recorded call for O=C(NNC(=O)c1ccco1)c1ccco1 here no

Outcome logged for COC(=O)CCC1=CCC2(SC)C(=O)Nc3cccc1c32 (stereo unspecified) in this assay: no

Kindly provide the recorded test outcome for the following molecule: Cc1ccc(C)c(NC(=O)C(=O)C(C(=O)c2ccc3ccccc3c2)C2OC(=O)c3ccccc32)c1 (stereo unspecified) no

I'd appreciate the recorded outcome for O=C(CSc1nnc(-c2ccc(/N=C\c3ccc(Cl)cc3)cc2)o1)Nc1ccc(Cl)cc1Cl from this test. no

What was the test verdict on COC1=C(C)C(=O)c2c(cc3c(c2O)C(C)(CCC=C(C)C)C(C)O3)C1=O (stereo unspecified) ? no

What did this assay record as the result for CCOC(=N)/C(=C1\OC(=N)C(c2ccc(Cl)cc2)=C1O)c1ccc(Cl)cc1 ? no

State the result this test recorded for C=CC[C@@]1(C)CCCCCCCCC[C@@](C)(CC=C)C1=O . no

Look up the recorded call for O=c1c(NCc2ccccc2)c(C2(c3ccccc3F)SCCCS2)c1=O in this test. no

Please let me know the test result on file for Cc1ccc(S(=O)(=O)N/C(=N\O)Nc2ccc(Cl)c(Cl)c2)cc1 . no
